pIC50: −log10 of the molar value.
Target or system COX-1 (Ovis aries, UniProt P05979); recorded quantity pIC50.
PROPERTY MEASURED: pIC50

P. O=C(Cn1cnc2c(cnn2-c2ccccc2)c1=O)Nc1ccc([N+](=O)[O-])cc1
Q. O=C(Cn1cnc2c(cnn2-c2ccccc2)c1=O)Nc1ccc2ccccc2c1
Query: // compare: P vs Q , metric pIC50, want the smaller Please identify the chosen entry by its label.
Result: P
(P: 4.85, Q: 5.19)

###

# MEASUREMENT TARGET: COX-1 (Ovis aries, UniProt P05979)
# Sequence (P05979 25-600): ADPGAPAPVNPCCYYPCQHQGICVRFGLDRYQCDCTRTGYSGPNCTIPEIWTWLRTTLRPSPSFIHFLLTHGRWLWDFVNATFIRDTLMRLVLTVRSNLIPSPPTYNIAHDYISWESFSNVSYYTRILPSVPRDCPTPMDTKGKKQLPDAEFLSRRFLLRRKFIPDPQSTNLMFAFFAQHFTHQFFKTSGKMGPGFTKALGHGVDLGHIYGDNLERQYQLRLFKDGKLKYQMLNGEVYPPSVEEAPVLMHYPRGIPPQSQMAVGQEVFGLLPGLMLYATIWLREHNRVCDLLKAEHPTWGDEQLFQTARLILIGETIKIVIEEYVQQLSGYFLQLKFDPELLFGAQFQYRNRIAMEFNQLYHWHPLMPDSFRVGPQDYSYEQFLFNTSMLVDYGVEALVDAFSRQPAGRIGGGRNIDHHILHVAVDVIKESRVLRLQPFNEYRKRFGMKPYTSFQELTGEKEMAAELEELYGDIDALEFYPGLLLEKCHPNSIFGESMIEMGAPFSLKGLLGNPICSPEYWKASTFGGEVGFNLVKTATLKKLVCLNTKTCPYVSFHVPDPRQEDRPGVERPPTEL
# ASSAY DETAILS: In vitro COX-1 inhibition, fluorescent inhibitor screening assay kit
# CONDITION NOTES: conc 0.1 (uM)
PROPERTY MEASURED: COX1 %inh (%)

Some solved entries appear below for comparison.
SMILES ENTRY: O=C(Cn1cnc2c(cnn2-c2ccccc2)c1=O)Nc1ccc2ccccc2c1
COX1 %inh (%): 7.85

SMILES ENTRY: CC(=NO)c1ccc(NC(=O)Cn2cnc3c(cnn3-c3ccccc3)c2=O)cc1
COX1 %inh (%): 6.51

A. O=C(Cn1cnc2c(cnn2-c2ccccc2)c1=O)N(c1ccccc1)c1ccccc1
B. O=C(Cn1cnc2c(cnn2-c2ccccc2)c1=O)Nc1ccc([N+](=O)[O-])cc1
Query: // compare: A vs B , metric COX1 %inh, want the smaller Please identify the chosen entry by its label.
Result: B
(B: 1.77%, A: 5.18%)

###

# MEASUREMENT TARGET: COX-1 (Ovis aries)
# ASSAY DETAILS: In vitro COX-1 inhibition, fluorescent inhibitor screening assay kit
# CONDITION NOTES: conc 10 (uM)
PROPERTY MEASURED: COX1 %inh (%)

Some solved entries appear below for comparison.
SMILES ENTRY: O=C(Cn1cnc2c(cnn2-c2ccccc2)c1=O)Nc1ccc([N+](=O)[O-])cc1
MEASUREMENT TARGET: COX-1 (Ovis aries)
COX1 %inh [%]: 49.5

SMILES ENTRY: CC(=NO)c1ccc(NC(=O)Cn2cnc3c(cnn3-c3ccccc3)c2=O)cc1
MEASUREMENT TARGET: COX-1 (Ovis aries)
COX1 %inh [%]: 24.6

I. O=C(Cn1cnc2c(cnn2-c2ccccc2)c1=O)N(c1ccccc1)c1ccccc1
II. O=C(Cn1cnc2c(cnn2-c2ccccc2)c1=O)Nc1ccc2ccccc2c1
Query: // compare: I vs II , metric COX1 %inh, want the smaller Please identify the chosen entry by its label.
Result: I

These data points were gathered from paper PMC12472512.
